Test system: NCI-H522 lung
procedure-summary: NCI tumour cell line growth inhibition, 48 h
log10 TGI: recorded values
Friendly reminder: values = log10 of TGI, unit µM.

[in] Quick one: log10 TGI of C=C(C)[C@H](O)C(O)CC(C)[C@@H]1CCC23CC12CCC1[C@@]2(C)CCC(OC(C)=O)C(C)(C)C2CC(OC2OC(COC(C)=O)C(O)C(O)C2O)[C@]13C (some centres undefined) ?
[out] 1.00

[in] Ok, now COc1cc(/C=C2\CC3C4CC[C@H]5C[C@@H](O)CC[C@]5(C)C4CC[C@]3(C)C2=O)cc(OC)c1OC (some centres undefined)
[out] 1.64

[in] Ok, now CCCCCCCCNC(=S)/N=C/c1c(O)c2ccccc2oc1=O
[out] 1.35

[in] Ok, now N#CC(NNC(=O)c1ccccc1O)c1ccccc1 (centres undefined)
[out] 1.72

[in] Ok, now CC(=O)N1C2=CCCC2(C)c2ccccc21 (centres undefined)
[out] 1.98

[in] Ok, now N#CN1CCC=C(c2cc3ccccc3[nH]2)C1
[out] 2.47
